Value source: patent US20200087364A1

Biological target: T1, HLA-A*01:01 (human)
T1 construct: MHC class I monomer first loaded with a UV-sensitive peptide (not identified) that is cleaved by UV irradiation and exchanged for the tested peptide; captured on streptavidin plates, detected with anti-β2m; also called peptide-receptive MHC molecules
Experiment: UV-ligand exchange, anti-b2m ELISA
Measured peptide exchange yield values are reported for all entries that follow.

binder: KEVDPAGHSYI
peptide exchange yield: 20 to 50%
--
binder: LPDPNVQKY
peptide exchange yield: 20 to 50%
--
binder: HTMEVTVY
peptide exchange yield: 50 to 75%
--
binder: VDPIGHLY
peptide exchange yield: 20 to 50%
--
binder: GYVCNACGLY
peptide exchange yield: 20 to 50%
--
binder: KFDVINHYF
peptide exchange yield: 20 to 50%
--
binder: ESDEMENLLTY
peptide exchange yield: 50 to 75%
--
binder: FMVIAGMPLFY
peptide exchange yield: 50 to 75%
--
binder: LVDGKWQEF
peptide exchange yield: 20 to 50%
--
binder: RRLNFSGFGY
peptide exchange yield: 50 to 75%
--
binder: QITPKHNGLY
peptide exchange yield: 20 to 50%
--
binder: NLDHYTNAY
peptide exchange yield: 50 to 75%
--
binder: VSVYNSYPY
peptide exchange yield: 20 to 50%
--
binder: VLKIELETY
peptide exchange yield: 50 to 75%
--
binder: SADHPGLTF
peptide exchange yield: 20 to 50%
--
binder: AFDDIATYF
peptide exchange yield: 20 to 50%
--
binder: GQFTGTAGACRY
peptide exchange yield: 20 to 50%
--
binder: EVDIHTIHY
peptide exchange yield: 50 to 75%
--
binder: RLSTIRHLY
peptide exchange yield: 50 to 75%
--
binder: KPSAVKDSIY
peptide exchange yield: 20 to 50%
--
binder: EADPFLKYL
peptide exchange yield: 20 to 50%
--
binder: ITDFGLAKL
peptide exchange yield: 20 to 50%
--
binder: GSFSIQHTY
peptide exchange yield: 20 to 50%
--
binder: GLIEVVTGY
peptide exchange yield: > 75%
--
binder: LLPLLVMAY
peptide exchange yield: 20 to 50%
--
binder: RAVQPGETY
peptide exchange yield: 50 to 75%
